# maps each entry to its Spleen % dose/g
# measurement notes: Biodistribution of 99mTc(N)(X)(DTC)+ heterocomplexes in rats
# Format: in vivo, male Spraque-Dawley rats (SD rats)
# condition info: 30 min after injection

{"compound": "COCCC[P]1(CCCOC)CCN(CCOC)CC[P](CCCOC)(CCCOC)[99Tc+]12(#[N])[NH]N(C)C(SC)=[S]2 [^99mTc(N)(PNP3)(DTC)^+]", "unit spec": "% dose/g", "Spleen % dose/g": 0.550}
{"compound": "CCCN1CC[P+](c2ccccc2)(c2ccccc2)[99Tc-2]2(#[N])([NH]N(C)C(SC)=[S+]2)[P+](c2ccccc2)(c2ccccc2)CC1 [^99mTc(N)(PNP1)(DTC)^+]", "unit spec": "% dose/g", "Spleen % dose/g": 5.884}
{"compound": "COCCN1CC[P+](c2ccccc2)(c2ccccc2)[99Tc-2]2(#[N])([NH]N(C)C(SC)=[S+]2)[P+](c2ccccc2)(c2ccccc2)CC1 [^99mTc(N)(PNP2)(DTC)^+]", "unit spec": "% dose/g", "Spleen % dose/g": 5.131}
{"compound": "CSC1=[S+][99Tc-2]2(#[N])([NH]N1C)[P+](c1ccccc1)(c1ccccc1)CCOCC[P+]2(c1ccccc1)c1ccccc1 [^99mTc(N)(POP)(DTC)^+]", "unit spec": "% dose/g", "Spleen % dose/g": 2.07}
